Tested on: trypsin
ASSAY EXPLANATION: in vitro
CONDITION LABEL: isolated enzyme trypsin
PROPERTY LABEL: remaining at 1 h, 100 µM (%)
I only need the number, in %, no unit after it.

Look up remaining at 1 h, 100 µM: CCCCCCCCCCCCCC(=O)N[C@@H](CC(N)=O)C(=O)N[C@@H](CC(C)C)C(=O)N[C@]1(C)CCCCCCC=CCCC[C@@](C)(C(=O)N[C@@H](CCC(=O)O)C(=O)N[C@@H](CC(C)C)C(=O)N[C@@H](CC(N)=O)C(N)=O)NC(=O)[C@H](CC(C)C)NC(=O)[C@H](CC(C)C)NC(=O)[C@H](CCCNC(=N)N)NC(=O)[C@H](CC(=O)O)NC(=O)[C@H](CC(C)C)NC(=O)[C@H](CCC(=O)O)NC1=O
102

====

ASSAY TARGET: FAK FAT domain (Homo sapiens, UniProt Q05397)
Sequence (Q05397 914-1045 limits assumed): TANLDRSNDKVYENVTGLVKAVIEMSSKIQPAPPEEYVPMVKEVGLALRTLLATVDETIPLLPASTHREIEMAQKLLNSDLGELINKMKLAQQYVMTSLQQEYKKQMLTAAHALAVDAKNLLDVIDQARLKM
ASSAY EXPLANATION: SPR binding to immobilized biotinylated FAK FAT
CONDITION LABEL: Rep2; read-out: SPR (KD)
Description: SPR binding studies were performed using biotinylated FAK FAT protein[51]. Briefly, SPR binding assays were performed on a ForteBio Pioneer FE SPR system using SPR running buffer (100 mM Tris-Cl pH 8.0, 200 mM NaCl, and 0.05% Tween-20). […]
Bridge positions count the residues as written; N and C are the ends. Square brackets hold non-standard residues; d marks the D form. Peptide text beside a SMILES is read from it. R8 = C=CCCCCCC[C@@](C)(N)C(=O)O; S5 = C=CCCC[C@](C)(N)C(=O)O
Recorded Kd, one value per entry.

CC(=O)N[C@@H](CC(N)=O)C(=O)N[C@@H](CC(C)C)C(=O)N[C@]1(C)CCCCCCC=CCCC[C@@](C)(C(=O)N[C@@H](CCC(=O)O)C(=O)N[C@@H](CCC(=O)O)C(=O)N[C@@H](CC(N)=O)C(N)=O)NC(=O)[C@H](CC(C)C)NC(=O)[C@H](CC(C)C)NC(=O)[C@H](CCCNC(=N)N)NC(=O)[C@H](CC(=O)O)NC(=O)[C@H](CCC(=O)O)NC(=O)[C@H](CCC(=O)O)NC1=O [compound 2014] (Ac-NL[R8]EEDRLL[S5]EEN-NH2; staple 3-10); > 200 µM

Look up Kd: C=CCCCCCC[C@@](C)(NC(=O)[C@H](CC(C)C)NC(=O)[C@H](CC(N)=O)NC(C)=O)C(=O)N[C@@H](CCC(=O)O)C(=O)N[C@@H](CC(C)C)C(=O)N[C@@H](CC(=O)O)C(=O)N[C@@H](CCCNC(=N)N)C(=O)N[C@@H](CC(C)C)C(=O)N[C@@H](CC(C)C)C(=O)N[C@@](C)(CCCC=C)C(=O)N[C@@H](CCC(=O)O)C(=O)N[C@@H](CC(C)C)C(=O)N[C@@H](CC(N)=O)C(N)=O
35.6 µM

Look up Kd: CC(=O)N[C@]1(C)CCCCCCC=CCCC[C@@](C)(C(N)=O)NC(=O)[C@H](CC(C)C)NC(=O)[C@H](CC(C)C)NC(=O)[C@H](CCCNC(=N)N)NC(=O)[C@H](CC(=O)O)NC(=O)[C@H](CC(C)C)NC(=O)[C@H](CCC(=O)O)NC1=O [compound 2011] (Ac-[R8]ELDRLL[S5]-NH2; staple 1-8)
> 200 µM
